Test system: SR
ASSAY_NAME: NCI tumour cell line growth inhibition, 48 h
Activity calls are given as the source filed them. No stated cut-off is given here; in the data, active = GI50 up to about 1.1 µM and inactive = higher.
METRIC: GI50

{"COMPOUND": "O=[N+]([O-])c1ccc(S(=O)(=O)N=Ic2ccccc2)cc1", "RESULT": "> 100 µM (inactive)"}

Reported GI50 for SR, given CO/N=C(/C)c1cccc(Nc2nc3ccccc3c3[nH]c4ccccc4c23)c1 ?
5.86 µM (inactive)

Reported GI50 for SR, given CCN(CC)CCN1C=CC(C)C(C(=O)O)C1C(N)=O (stereo not given) ?
> 100 µM (inactive)

====

System: DMS-114
ASSAY_NAME: NCI tumour cell line growth inhibition, 48 h
The source made the active and inactive calls. No stated cut-off is given here; in the data, active = GI50 up to about 1.1 µM and inactive = higher.
Documented GI50 across a set of compounds

{"COMPOUND": "CC(=O)OCC(=O)[C@@]12OC(C)(C)O[C@@H]1C[C@H]1[C@@H]3CC(C=O)=C4C=C(OCCCl)CC[C@]4(C)[C@@]3(F)[C@@H](O)C[C@@]12C", "GI50": "> 100 µM (inactive)"}
{"COMPOUND": "c1ccc(SCCP(CCP(c2ccccc2)c2ccccc2)c2ccccc2)cc1 (stereo not given)", "GI50": "10.2 µM (inactive)"}
{"COMPOUND": "Cc1c2n(c3ccccc13)CC1CON(C)C21 (stereo not given)", "GI50": "> 100 µM (inactive)"}
{"COMPOUND": "C1CCN(c2nc(=[N+]3CCCCC3)ss2)CC1", "GI50": "31.1 µM (inactive)"}

Any idea what its GI50 is? The compound is CCCCCCC(C)CCCCCCCCCCC(=O)O (stereo not given)
> 100 µM (inactive)
